Experiment: Binding affinity to quail siderocalin Q83 by NMR analysis
Set-up: species or system Galliformes
OBSERVATION TYPE: pKd
Keep it numeric: pKd is minus log10 of the concentration in mol/L.

Reported pKd of O=C(N[C@H]1COC(=O)[C@@H](NC(=O)c2cccc(O)c2O)COC(=O)[C@@H](NC(=O)c2cccc(O)c2O)COC1=O)c1cccc(O)c1O [ENTEROBACTIN] : 9.30

* * *

Test: Binding affinity to hen egg-white lysozyme by NMR analysis
Parameters: species or system Gallus gallus
OBSERVATION TYPE: Kd (µM)
Please reply with the bare figure in µM and do not write the unit itself.

Lab note: measured Kd of N[C@H]1[C@H](O[C@H]2[C@H](O)[C@@H](N)[C@H](O[C@H]3[C@H](O)[C@@H](N)C(O)O[C@@H]3CO)O[C@@H]2CO)O[C@H](CO)[C@@H](O)[C@@H]1O (stereo partly specified) was 14
